- Tested on: RARg:RXRa (NR concentration 270 nM, RXRa partner concentration 90 nM)
- assay-info: PBM binding z-score (relative to random genomic background probes); higher = stronger binding; sequences stand for … in GC…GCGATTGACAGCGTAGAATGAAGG
Class boundaries, taken from values of PBM binding z-score, are as follows: bottom bin (below 1), middle bin (1 to below 4), top bin (4 or more)

>  <residue-string>
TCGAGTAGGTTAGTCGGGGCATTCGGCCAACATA

>  <target-or-system>
RARg:RXRa (NR concentration 270 nM, RXRa partner concentration 90 nM)

>  <assigned-category>
bottom bin

$$$$
>  <residue-string>
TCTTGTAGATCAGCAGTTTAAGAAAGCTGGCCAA

>  <target-or-system>
RARg:RXRa (NR concentration 270 nM, RXRa partner concentration 90 nM)

>  <assigned-category>
bottom bin

$$$$

Next item in the queue.
## Input Please let me know in which category the item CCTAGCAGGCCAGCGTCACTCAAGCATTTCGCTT belongs.
## Output bottom bin

Taken from the supplement of paper PMC6555819.
